# key: entry, value: Minus-HF (%)
- procedure summary: Photostability: xenon arc weathering of chromophore solutions, LCMS analysis
- Format: physicochemical
- condition label: 3 wt % in Rhodiasolv IRIS; xenon arc, 82° C. bp; linearly interpolated to 0.5 MJ/m2 @ 340 nm
Expressed in %, but write only the number.

Use these answered entries as a reference point.
>>> print(df.to_string())
                                smiles_text  assay_value
0  COc1cc2oc(-c3ccc(C(C)(C)C)cc3)c(C3=C(c4cc(-c5cccs5)sc4-c4cccs4)C(F)(F)C(F)(F)C3(F)F)c2cc1OC          1.4
1  COc1cc2oc(-c3ccc(C(C)(C)C)cc3)c(C3=C(c4cc(-c5ccc(C(C)(C)C)s5)sc4-c4sc(C(C)(C)C)cc4C)C(F)(F)C(F)(F)C3(F)F)c2cc1OC          0.0

Look up Minus-HF (%): `COc1ccc2oc(-c3ccc(C(C)(C)C)cc3)c(C3=C(c4cc(-c5ccc(C(C)(C)C)s5)sc4-c4ccc(C(C)(C)C)s4)C(F)(F)C(F)(F)C3(F)F)c2c1`
25.7

---

- procedure summary: Photostability: xenon arc weathering of chromophore solutions, LCMS analysis
- Assay type: physicochemical
- condition label: 3 wt % in Rhodiasolv IRIS; xenon arc, 82° C. bp; linearly interpolated to 0.5 MJ/m2 @ 340 nm
recorded metric: Sulfone (%)
Expressed in %, but write only the number.

Use these answered entries as a reference point.
smiles text	assay value
COc1cc2oc(-c3ccc(C(C)(C)C)cc3)c(C3=C(c4cc(-c5ccc(C(C)(C)C)s5)sc4-c4ccc(C(C)(C)C)s4)C(F)(F)C(F)(F)C3(F)F)c2cc1OC	0.0
CC(=O)Oc1cc2oc(-c3ccc(C(C)(C)C)cc3)c(C3=C(c4cc(-c5cc(C(C)(C)C)cs5)sc4-c4cc(C(C)(C)C)cs4)C(F)(F)C(F)(F)C3(F)F)c2cc1OC(C)=O	0.0

Please examine the following record next.
Look up Sulfone (%): `COc1cc2oc(-c3ccc(C(C)(C)C)cc3)c(C3=C(c4cc(-c5ccc(C(C)(C)C)s5)sc4-c4sc(C(C)(C)C)cc4C)C(F)(F)C(F)(F)C3(F)F)c2cc1OC`
7.5

---

# key: entry, value: RC [O] (oxidation potential of ring-closed isomer)
- procedure summary: Oxidation potential of ring-closed and ring-open isomers
- Assay type: physicochemical
- condition label: ring-closed isomer; no unit printed in table (V relative to Ag/AgCl)
The reply should be a number, written without any unit.

Look up RC [O] (oxidation potential of ring-closed isomer): `COCCCOc1cc2oc(-c3ccc(C(C)(C)C)cc3)c(C3=C(c4cc(-c5cc6c(s5)C(C)(C)CCC6(C)C)sc4-c4cc5c(s4)C(C)(C)CCC5(C)C)C(F)(F)C(F)(F)C3(F)F)c2cc1OCCCOC`
0.89

Look up RC [O] (oxidation potential of ring-closed isomer): `COCCCOc1cc2oc(-c3ccc(C(C)(C)C)cc3)c(C3=C(c4cc(-c5cc(C(C)(C)C)cs5)sc4-c4cc(C(C)(C)C)cs4)C(F)(F)C(F)(F)C3(F)F)c2cc1OCCCOC`
0.95

Look up RC [O] (oxidation potential of ring-closed isomer): `COCCOc1cc2oc(-c3ccc(C(C)(C)C)cc3)c(C3=C(c4cc(-c5ccc(C(C)(C)C)s5)sc4-c4ccc(C(C)(C)C)s4)C(F)(F)C(F)(F)C3(F)F)c2cc1OCCOC`
0.93

Look up RC [O] (oxidation potential of ring-closed isomer): `CCOC(=O)CCCOc1cc2oc(-c3ccc(C(C)(C)C)cc3)c(C3=C(c4cc(-c5ccc(C(C)(C)C)s5)sc4-c4sc(C(C)(C)C)cc4C)C(F)(F)C(F)(F)C3(F)F)c2cc1OCCCC(=O)OCC`
0.91

Look up RC [O] (oxidation potential of ring-closed isomer): `COc1cc2oc(-c3ccc(C(C)(C)C)cc3)c(C3=C(c4cc(-c5ccc(C(C)(C)C)s5)sc4-c4sc(C(C)(C)C)cc4C)C(F)(F)C(F)(F)C3(F)F)c2cc1OC`
0.9

Look up RC [O] (oxidation potential of ring-closed isomer): `COc1ccc2c(C3=C(c4cc(-c5ccc(C(C)(C)C)s5)sc4-c4ccc(C(C)(C)C)s4)C(F)(F)C(F)(F)C3(F)F)c(-c3ccc(C(C)(C)C)cc3)oc2c1`
1

Look up RC [O] (oxidation potential of ring-closed isomer): `CCOC(=O)CCCOc1cc2oc(-c3ccc(C(C)(C)C)cc3)c(C3=C(c4cc(-c5cc(C(C)(C)C)cs5)sc4-c4cc(C(C)(C)C)cs4)C(F)(F)C(F)(F)C3(F)F)c2cc1OCCCC(=O)OCC`
0.99

Look up RC [O] (oxidation potential of ring-closed isomer): `COc1cc2oc(-c3ccc(C(C)(C)C)cc3)c(C3=C(c4cc(-c5cc(C(C)(C)C)cs5)sc4-c4cc(C(C)(C)C)cs4)C(F)(F)C(F)(F)C3(F)F)c2cc1OC`
0.97

Look up RC [O] (oxidation potential of ring-closed isomer): `COc1ccc2oc(-c3ccc(C(C)(C)C)cc3)c(C3=C(c4cc(-c5ccc(C(C)(C)C)s5)sc4-c4ccc(C(C)(C)C)s4)C(F)(F)C(F)(F)C3(F)F)c2c1`
1.05

Look up RC [O] (oxidation potential of ring-closed isomer): `CCOC(=O)CCCOc1cc2oc(-c3ccc(C(C)(C)C)cc3)c(C3=C(c4cc(-c5ccc(C(C)(C)C)s5)sc4-c4ccc(C(C)(C)C)s4)C(F)(F)C(F)(F)C3(F)F)c2cc1OCCCC(=O)OCC`
0.93
